target_desc: Retinoic acid receptor alpha (Homo sapiens, UniProt P10276)
Sequence (P10276 whole entry): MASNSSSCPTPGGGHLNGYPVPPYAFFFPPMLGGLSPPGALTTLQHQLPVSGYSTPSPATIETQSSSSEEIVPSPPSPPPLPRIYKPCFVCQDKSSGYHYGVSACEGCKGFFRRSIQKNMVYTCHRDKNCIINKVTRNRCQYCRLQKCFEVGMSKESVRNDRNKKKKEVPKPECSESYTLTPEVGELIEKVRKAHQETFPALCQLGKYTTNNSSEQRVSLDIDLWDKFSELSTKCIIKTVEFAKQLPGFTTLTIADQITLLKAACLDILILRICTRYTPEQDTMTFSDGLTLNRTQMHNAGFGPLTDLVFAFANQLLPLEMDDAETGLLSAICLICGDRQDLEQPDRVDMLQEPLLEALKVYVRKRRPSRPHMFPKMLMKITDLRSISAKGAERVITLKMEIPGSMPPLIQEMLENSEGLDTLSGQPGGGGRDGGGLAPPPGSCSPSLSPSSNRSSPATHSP
assay_details: Effective concentration against RAR-alpha receptor
Below is a list of entries, each paired with its recorded EC50 value.

>  <compound_structure>
CC1=C(/C=C/C(C)=C\c2ccc(C(=O)O)cc2)C(C)(C)CCC1

>  <EC50, µM>
5

$$$$
>  <compound_structure>
CC1=C(CC/C(C)=C/c2ccc(C(=O)O)cc2)C(C)(C)CCC1

>  <EC50, µM>
0.55

$$$$
>  <compound_structure>
C/C(=C/c1ccc(C(=O)O)cc1)c1ccc2c(c1)C(C)(C)CCS2

>  <EC50, µM>
2.3

$$$$
>  <compound_structure>
CC1=C(/C=C/C(C)=C/c2ccc(C(=O)O)cc2)C(C)(C)CCC1

>  <EC50, µM>
0.24

$$$$
>  <compound_structure>
C/C(=C/c1ccc2c(c1)C(C)(C)CCS2)c1ccc(C(=O)O)cc1

>  <EC50, µM>
2.1

$$$$
>  <compound_structure>
C/C(=C\c1ccc(C(=O)O)cc1)c1ccc2c(c1)C(C)(C)CCS2

>  <EC50, µM>
0.027

$$$$
>  <compound_structure>
C/C(=C\c1ccc2c(c1)C(C)(C)CCS2)c1ccc(C(=O)O)cc1

>  <EC50, µM>
0.045

$$$$
>  <compound_structure>
C/C(=C\c1ccc2c(c1)C(C)(C)CCC2(C)C)c1ccc(C(=O)O)cc1

>  <EC50, µM>
0.037

$$$$

* * *

target_desc: Retinoic acid receptor gamma (Homo sapiens)
assay_details: Effective concentration against RAR-gamma receptor
endpoint_label: log10 of EC50 (log10 of the value in µM)

>  <molecule>
C/C(=C\c1ccc2c(c1)C(C)(C)CCC2(C)C)c1ccc(C(=O)O)cc1

>  <log10 of EC50>
-1.72

$$$$
>  <molecule>
CC1=C(/C=C/C(C)=C\c2ccc(C(=O)O)cc2)C(C)(C)CCC1

>  <log10 of EC50>
0.30

$$$$
>  <molecule>
C/C(=C/c1ccc(C(=O)O)cc1)c1ccc2c(c1)C1CCC2C1 (stereo not given)

>  <log10 of EC50>
-1.15

$$$$
>  <molecule>
CC1=C(CC/C(C)=C\c2ccc(C(=O)O)cc2)C(C)(C)CCC1

>  <log10 of EC50>
0.11

$$$$
>  <molecule>
CC1=C(/C=C/C(C)=C/c2ccc(C(=O)O)cc2)C(C)(C)CCC1

>  <log10 of EC50>
-1.46

$$$$
>  <molecule>
C/C(=C\c1ccc2c(c1)C(C)(C)CCS2)c1ccc(C(=O)O)cc1

>  <log10 of EC50>
-1.33

$$$$
>  <molecule>
C/C(=C/c1ccc(C(=O)O)cc1)c1ccc2c(c1)C(C)(C)CCS2

>  <log10 of EC50>
0.04

$$$$
>  <molecule>
CC1=C(CC/C(C)=C/c2ccc(C(=O)O)cc2)C(C)(C)CCC1

>  <log10 of EC50>
-0.68

$$$$
>  <molecule>
C/C(=C/c1ccc2c(c1)C(C)(C)CCS2)c1ccc(C(=O)O)cc1

>  <log10 of EC50>
0.18

$$$$
>  <molecule>
C/C(=C/c1ccc2c(c1)C(C)(C)CCC2(C)C)c1ccc(C(=O)O)cc1

>  <log10 of EC50>
0.43

$$$$

* * *

target_desc: Retinoic acid receptor beta (Homo sapiens, UniProt P10826)
Sequence (P10826 whole entry): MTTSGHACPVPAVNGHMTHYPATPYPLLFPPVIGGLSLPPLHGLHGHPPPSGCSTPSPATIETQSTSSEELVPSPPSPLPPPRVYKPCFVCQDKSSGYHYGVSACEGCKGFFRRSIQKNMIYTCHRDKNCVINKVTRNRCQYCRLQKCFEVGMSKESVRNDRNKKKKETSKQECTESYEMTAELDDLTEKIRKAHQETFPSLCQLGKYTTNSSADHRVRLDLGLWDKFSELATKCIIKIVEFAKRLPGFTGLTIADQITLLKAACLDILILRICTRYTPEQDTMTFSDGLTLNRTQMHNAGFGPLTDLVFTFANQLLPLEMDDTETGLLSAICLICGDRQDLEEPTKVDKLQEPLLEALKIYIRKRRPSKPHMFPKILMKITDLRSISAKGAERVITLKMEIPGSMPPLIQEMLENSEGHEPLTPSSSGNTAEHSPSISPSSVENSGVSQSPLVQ
assay_details: Effective concentration against Retinoic acid receptor beta
Recorded EC50 values for a group of compounds are listed next.
endpoint_label: EC50 (nM)

>  <compound_structure>
C/C(=C/c1ccc2c(c1)C(C)(C)CCC2(C)C)c1ccc(C(=O)O)cc1

>  <readout_number>
1900

$$$$
>  <compound_structure>
CC1=C(/C=C/C(C)=C/c2ccc(C(=O)O)cc2)C(C)(C)CCC1

>  <readout_number>
5

$$$$
>  <compound_structure>
CC1=C(/C=C/C(C)=C\c2ccc(C(=O)O)cc2)C(C)(C)CCC1

>  <readout_number>
1800

$$$$
>  <compound_structure>
C/C(=C/c1ccc2c(c1)C(C)(C)CCS2)c1ccc(C(=O)O)cc1

>  <readout_number>
1500

$$$$
>  <compound_structure>
CC1(C)CCC(C)(C)c2cc(-c3ccccc3-c3ccc(C(=O)O)cc3)ccc21

>  <readout_number>
3200

$$$$
>  <compound_structure>
C/C(=C\c1ccc(C(=O)O)cc1)c1ccc2c(c1)C(C)(C)CCS2

>  <readout_number>
15

$$$$
>  <compound_structure>
C/C(=C\c1ccc2c(c1)C(C)(C)CCC2(C)C)c1ccc(C(=O)O)cc1

>  <readout_number>
25

$$$$
>  <compound_structure>
CC1=C(CC/C(C)=C\c2ccc(C(=O)O)cc2)C(C)(C)CCC1

>  <readout_number>
2000

$$$$
>  <compound_structure>
C/C(=C\c1ccc2c(c1)C(C)(C)CCS2)c1ccc(C(=O)O)cc1

>  <readout_number>
40

$$$$
>  <compound_structure>
CC1=C(CC/C(C)=C/c2ccc(C(=O)O)cc2)C(C)(C)CCC1

>  <readout_number>
20

$$$$
>  <compound_structure>
C/C(=C/c1ccc(C(=O)O)cc1)c1ccc2c(c1)C(C)(C)CCS2

>  <readout_number>
250

$$$$

* * *

target_desc: Retinoic acid receptor gamma (Homo sapiens, UniProt P13631)
Sequence (P13631 whole entry): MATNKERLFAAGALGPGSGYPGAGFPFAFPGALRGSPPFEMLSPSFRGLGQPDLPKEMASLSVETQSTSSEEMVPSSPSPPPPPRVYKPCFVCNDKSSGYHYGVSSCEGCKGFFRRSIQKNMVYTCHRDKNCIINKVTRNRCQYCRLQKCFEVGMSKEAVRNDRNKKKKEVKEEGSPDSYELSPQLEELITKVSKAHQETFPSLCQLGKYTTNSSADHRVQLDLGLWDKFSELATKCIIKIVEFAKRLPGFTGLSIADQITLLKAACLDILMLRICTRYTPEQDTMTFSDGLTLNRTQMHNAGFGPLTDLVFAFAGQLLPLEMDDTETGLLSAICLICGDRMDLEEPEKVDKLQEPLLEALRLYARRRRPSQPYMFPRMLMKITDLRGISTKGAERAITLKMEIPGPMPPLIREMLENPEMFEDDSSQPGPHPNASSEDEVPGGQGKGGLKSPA
assay_details: Effective concentration against RAR-gamma receptor

>  <compound>
C/C(=C\c1ccc(C(=O)O)cc1)c1ccc2c(c1)C1CCC2C1 (stereo not drawn)

>  <target_desc>
Retinoic acid receptor gamma (Homo sapiens, UniProt P13631)

>  <EC50>
0.55 µM

$$$$
>  <compound>
C/C(=C\c1ccc(C(=O)O)cc1)c1ccc2c(c1)C(C)(C)CCS2

>  <target_desc>
Retinoic acid receptor gamma (Homo sapiens, UniProt P13631)

>  <EC50>
0.03 µM

$$$$
>  <compound>
CC1(C)CCC(C)(C)c2cc(-c3ccccc3-c3ccc(C(=O)O)cc3)ccc21

>  <target_desc>
Retinoic acid receptor gamma (Homo sapiens, UniProt P13631)

>  <EC50>
0.1 µM

$$$$

* * *

target_desc: Retinoic acid receptor RXR-alpha (Homo sapiens)
Sequence (P19793 whole entry): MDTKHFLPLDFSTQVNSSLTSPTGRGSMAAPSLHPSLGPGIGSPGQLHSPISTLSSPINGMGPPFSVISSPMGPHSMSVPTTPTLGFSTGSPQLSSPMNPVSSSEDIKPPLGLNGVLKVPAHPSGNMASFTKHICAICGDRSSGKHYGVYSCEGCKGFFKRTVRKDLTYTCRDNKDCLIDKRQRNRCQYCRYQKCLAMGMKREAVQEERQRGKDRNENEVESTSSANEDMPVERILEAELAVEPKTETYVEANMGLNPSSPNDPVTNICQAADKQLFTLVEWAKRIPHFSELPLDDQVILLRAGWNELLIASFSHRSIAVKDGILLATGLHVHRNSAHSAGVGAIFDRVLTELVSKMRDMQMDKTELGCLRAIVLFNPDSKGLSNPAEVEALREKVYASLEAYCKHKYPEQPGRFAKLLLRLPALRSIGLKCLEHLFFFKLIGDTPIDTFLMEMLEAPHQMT
assay_details: Effective concentration against RXR-alpha receptor
pEC50: −log10 of the molar value.
endpoint_label: pEC50

>  <compound_structure>
CC1(C)CCC(C)(C)c2cc(-c3ccccc3-c3ccc(C(=O)O)cc3)ccc21

>  <endpoint_label>
pEC50

>  <readout_number>
5.55

$$$$
>  <compound_structure>
C/C(=C/c1ccc2c(c1)C(C)(C)CCC2(C)C)c1ccc(C(=O)O)cc1

>  <endpoint_label>
pEC50

>  <readout_number>
5.96

$$$$
>  <compound_structure>
CC1=C(CC/C(C)=C/c2ccc(C(=O)O)cc2)C(C)(C)CCC1

>  <endpoint_label>
pEC50

>  <readout_number>
5.82

$$$$
>  <compound_structure>
C/C(=C/c1ccc2c(c1)C(C)(C)CCS2)c1ccc(C(=O)O)cc1

>  <endpoint_label>
pEC50

>  <readout_number>
5.55

$$$$
>  <compound_structure>
C/C(=C/c1ccc(C(=O)O)cc1)c1ccc2c(c1)C(C)(C)CCC2(C)C

>  <endpoint_label>
pEC50

>  <readout_number>
5.57

$$$$
